- tested_system: human Edg-1 (S1P1) (Homo sapiens, UniProt P21453)
- Construct: expressed in transfected cells; host or cells: HEK-293
- Sequence (P21453 whole entry): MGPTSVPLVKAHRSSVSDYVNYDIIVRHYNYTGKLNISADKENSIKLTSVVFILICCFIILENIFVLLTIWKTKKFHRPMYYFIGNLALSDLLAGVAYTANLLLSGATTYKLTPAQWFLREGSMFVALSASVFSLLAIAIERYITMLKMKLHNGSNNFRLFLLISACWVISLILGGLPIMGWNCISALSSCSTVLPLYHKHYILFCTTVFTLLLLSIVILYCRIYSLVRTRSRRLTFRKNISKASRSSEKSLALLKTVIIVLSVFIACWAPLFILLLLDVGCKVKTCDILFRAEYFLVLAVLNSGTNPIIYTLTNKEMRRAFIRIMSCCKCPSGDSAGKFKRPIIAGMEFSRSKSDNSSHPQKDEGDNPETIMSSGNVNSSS
- assay_overview: S1P1 binding assay: inhibition of [33P]-S1P binding to membrane fraction of HEK-293 cells transferred with the human Edg-1 (S1P1) gene
- details: test compound at 10 μM; inhibition of [33P]-S1P binding to the membrane fraction of HEK-293 cells expressing human Edg-1 (S1P1)
property: inhibition at 10 µM (%)

Check out these entries, answers already filled in.
sample_smiles | unit_text | inhibition at 10 µM
CCn1c(Oc2ccc3cc[nH]c3c2)nnc1[C@@H](C)NS(=O)(=O)c1cc(C)ccc1OC | % | 79.7
CCn1c(Oc2ccc(F)cc2)nnc1[C@@H](C)NS(=O)(=O)c1ccccc1C | % | 99.7

(I) CCn1c(Oc2ccc(OCCN3CCOCC3)cc2)nnc1[C@@H](C)NS(=O)(=O)c1ccc(Cl)c(Cl)c1
(II) CCn1c(Oc2ccc3cc[nH]c3c2)nnc1[C@@H](C)NS(=O)(=O)c1ccccc1Br
Ask | Which has the higher inhibition at 10 µM, I or II ? Provide the label of your selected option as the answer.
Reply | I
(I: 102%, II: 59.8%)

###

- tested_system: human Edg-1 (S1P1) (Homo sapiens, UniProt P21453)
- Construct: expressed in transfected cells; host or cells: HEK-293
- assay_overview: S1P1 binding assay: inhibition of [33P]-S1P binding to membrane fraction of HEK-293 cells transferred with the human Edg-1 (S1P1) gene
- details: test compound at 10 μM; inhibition of [33P]-S1P binding to the membrane fraction of HEK-293 cells expressing human Edg-1 (S1P1)
property: inhibition at 10 µM (%)

molecule | tested_system | measured_result
CCn1c(Oc2cc(Cl)cc(Cl)c2)nnc1[C@@H](C)NS(=O)(=O)c1ccc(Cl)c(Cl)c1 [Compound 30] | human Edg-1 (S1P1) (Homo sapiens, UniProt P21453) | 100
CCn1c(Oc2cccc(NC(N)=O)c2)nnc1[C@@H](C)NS(=O)(=O)c1ccc(Cl)c(Cl)c1 [Compound 91] | human Edg-1 (S1P1) (Homo sapiens, UniProt P21453) | 90.6
CCn1c(Oc2ccc(F)cc2)nnc1[C@@H](C)NS(=O)(=O)c1cc(Cl)c(F)cc1F [Compound 245] | human Edg-1 (S1P1) (Homo sapiens, UniProt P21453) | 89.3
CCn1c(Oc2ccc3cc[nH]c3c2)nnc1[C@@H](C)NS(=O)(=O)c1ccc(C)c(C)c1 [Compound 129] | human Edg-1 (S1P1) (Homo sapiens, UniProt P21453) | 96.8
CCNC(=O)Nc1cccc(Oc2nnc([C@@H](C)NS(=O)(=O)c3ccc(Cl)c(Cl)c3)n2CC)c1 [Compound 92] | human Edg-1 (S1P1) (Homo sapiens, UniProt P21453) | 92.1
CCn1c(Oc2ccc(F)cc2)nnc1[C@@H](C)NS(=O)(=O)c1cc(C)c(Cl)cc1Cl [Compound 248] | human Edg-1 (S1P1) (Homo sapiens, UniProt P21453) | 105
CCn1c(Oc2cccc(N3CCN(C)CC3)c2)nnc1[C@@H](C)NS(=O)(=O)c1ccc(C(F)(F)F)cc1 [Compound 142] | human Edg-1 (S1P1) (Homo sapiens, UniProt P21453) | 98.1

src = patent US8022091B2
